The reported numbers originate from PubChem BioAssay (NCI).

system: OVCAR-5 ovarian; test: NCI-60 one-dose screen, 48 h; details: 10 µM unless noted
Compounds without any hit were thinned out: in the full panel of roughly 83,000, 20% have a hit. The source made the active and inactive calls. How the source made its calls: active means growth percent below 10; inactive means the rest.
Possible outcomes: active, inactive

{"compound": "CCOP(=O)(OCC)OC[C@]12CCC(C)(C)C[C@H]1C1=CC[C@@H]3[C@@]4(C)C/C(=C\\c5cccnc5)[C@H](OP(=O)(OCC)OCC)C(C)(C)[C@@H]4CC[C@@]3(C)[C@]1(C)CC2", "assigned-label": "inactive"}
{"compound": "CCNC(=O)Oc1ccc(/C(=C(/C)c2ccc(Cl)cc2)c2ccc(OCCN(C)C)cc2)cc1", "assigned-label": "inactive"}
{"compound": "CC1(C)CC[C@]2(C(=O)N3CCCNCC3)CC[C@]3(C)C(=CC[C@@H]4[C@@]5(C)CCC(=O)C(C)(C)[C@@H]5CC[C@]43C)[C@H]2C1", "assigned-label": "inactive"}
{"compound": "COc1cc(/C=N/n2cnc3oc(-c4ccccc4)cc3c2=N)cc(CN2CCOCC2)c1O", "assigned-label": "inactive"}
{"compound": "Nc1cc(F)ccc1NC(=O)c1ccc(NC(=O)C/C=C/c2cccnc2)cn1", "assigned-label": "inactive"}
{"compound": "C#C[C@]1(O)CC[C@H]2[C@@H]3CC=C4c5sc(-c6ccc(OC)cc6)nc5CC[C@]4(C)[C@H]3CC[C@@]21C", "assigned-label": "inactive"}
{"compound": "Cc1nn(-c2ccccc2)cc1/C=N/Nc1nc(Nc2ccccc2)nc(Nc2ccc(S(N)(=O)=O)cc2)n1", "assigned-label": "active"}
{"compound": "NC(N)=NS(=O)(=O)c1ccc(N=NC2C(=O)NN(c3ccccc3)C2=O)cc1 (stereo not drawn)", "assigned-label": "inactive"}

====

test system: 786-0 renal; test: NCI-60 one-dose screen, 48 h (100 = growth as untreated, 0 = no growth, -100 = all killed); conditions: 10 µM unless noted
Compounds without any hit were thinned out: in the full panel of roughly 83,000, 20% have a hit.
The label yes is reserved for growth strictly under 90%; no covers values equal to or above it.

{"compound": "COC(=O)c1nc(-c2ccc(C)cc2)oc1S(=O)(=O)N1CCN(c2oc(-c3ccccc3)nc2C#N)CC1", "assigned-label": "no"}
{"compound": "C#CCOc1ccc(C(Nc2ccc(OC)cc2)c2nnnn2C2CCCCC2)cc1 (stereo not drawn)", "assigned-label": "no"}
{"compound": "Cc1ccccc1NC1CC(=O)N(c2ccc(Cl)cc2Cl)C1=O (stereo not drawn)", "assigned-label": "no"}
{"compound": "CC[C@H](C)[C@H]1NC(=O)[C@@H]([C@H](O)C(C)C)NC(=O)[C@@H](C)N(C)C(=O)[C@H](C)N(C)C(=O)[C@H](CC(C)C)NC(=O)[C@H](CC(C)C)N(C)C(=O)[C@H](C)N(C)C1=O", "assigned-label": "yes"}
{"compound": "O=C1Nc2ccc(Cl)cc2/C1=C/c1ccc(OCc2ccc(Br)cc2F)cc1", "assigned-label": "no"}
{"compound": "Cn1cc(-c2nn3cc(-c4cccnc4)nc3s2)c2cc(F)ccc21", "assigned-label": "no"}
{"compound": "CC(C)=CCC[C@](C)(O)[C@H]1CC[C@]2(C)[C@@H]1CC[C@@H]1[C@@]3(C)CCC(NC(=O)c4ccccc4C(=O)O)C(C)(C)[C@@H]3CC[C@]12C (stereo partly drawn)", "assigned-label": "no"}
{"compound": "C#Cc1ccc(NC(=O)c2ccc(/C=C/C(=O)c3nccn3C)cc2)c(F)c1", "assigned-label": "yes"}
